Please go through the items and note down their exon inclusion enrichment index.
B1: mRNA-splicing (parent)
chain: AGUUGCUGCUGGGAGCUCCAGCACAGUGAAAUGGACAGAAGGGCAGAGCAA

variants of: B1; test: exon inclusion enrichment index; higher = more inclusion; WT1 exon 5 minigene, HEK293
# output: bare number, no unit

Task item: // lookup exon inclusion enrichment index for G5A C6G U7G C9A A31U U32C
Reply: 0.00119

Task item: // lookup exon inclusion enrichment index for G5A C6U U7A G8U C9A A40U G41A
Reply: 0.00198

Task item: // lookup exon inclusion enrichment index for G5A U7C G8A U10A G11U
Reply: 1.37

Task item: // lookup exon inclusion enrichment index for G5C C6U G8C C9U U10C G15A C16U
Reply: 1.27

Task item: // lookup exon inclusion enrichment index for C6A U7C C9A U10C G21C C22A
Reply: 3.4

Task item: // lookup exon inclusion enrichment index for G5U G8U C9U A25U
Reply: 0.289

Task item: // lookup exon inclusion enrichment index for C6A U7A G8U C9U U10A
Reply: 0.00366

Task item: // lookup exon inclusion enrichment index for G5C C6G U7C U10C A29U A30U
Reply: 1.81

Task item: // lookup exon inclusion enrichment index for G5A U7C G8A U10C A14U G15U
Reply: 0.953

Task item: // lookup exon inclusion enrichment index for G5A C6U U7A G8U C9A A20C G21A
Reply: 0.0479

Task item: // lookup exon inclusion enrichment index for G5C C6A U7C G8A U10A C19U
Reply: 0.0124

Task item: // lookup exon inclusion enrichment index for C6A U7C C9A U10C A45G
Reply: 4.95

Task item: // lookup exon inclusion enrichment index for G5A C6G U7G C9A C44A A45U
Reply: 0.0154

Task item: // lookup exon inclusion enrichment index for G5U G8U C9U A20C G21C
Reply: 0.0207

Task item: // lookup exon inclusion enrichment index for G5A C6G U7G C9A C44G A45G
Reply: 0.00929

Task item: // lookup exon inclusion enrichment index for C6A U7A C9A U10A C22A
Reply: 0.593

Task item: // lookup exon inclusion enrichment index for U4C G5A G8U C9U
Reply: 0.77

Task item: // lookup exon inclusion enrichment index for G5C C6U G8C C9U U10C A23U C24G
Reply: 2.38

Task item: // lookup exon inclusion enrichment index for G5U G8U C9U A47G
Reply: 0.0159

Task item: // lookup exon inclusion enrichment index for G5C C6A U7C G8A U10A A14C
Reply: 0.0603

Task item: // lookup exon inclusion enrichment index for G5C C6U G8C C9U U10C A23G C24G
Reply: 3.51

Task item: // lookup exon inclusion enrichment index for A20U
Reply: 2.62
